TARGET ENTITY: hMC4-R (Homo sapiens (Human), UniProt P32245)
Sequence (P32245 whole entry): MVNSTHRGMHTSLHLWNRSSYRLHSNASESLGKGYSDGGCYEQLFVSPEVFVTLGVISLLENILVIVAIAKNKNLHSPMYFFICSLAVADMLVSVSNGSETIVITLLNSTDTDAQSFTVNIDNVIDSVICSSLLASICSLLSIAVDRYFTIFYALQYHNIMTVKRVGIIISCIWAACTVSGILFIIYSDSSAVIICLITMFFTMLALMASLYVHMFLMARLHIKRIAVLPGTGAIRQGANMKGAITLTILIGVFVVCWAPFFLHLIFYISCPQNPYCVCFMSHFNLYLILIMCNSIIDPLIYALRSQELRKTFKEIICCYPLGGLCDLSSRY
ASSAY PROCEDURE: Assay for agonist activity: cAMP accumulation in HEK-293 cells that express hMC4-R
Peptide text beside a SMILES is read from it.
REPORTED ENDPOINT: EC50 (nM)
Give just the numeric value; nM need not be written.

Completed entries (count: 2):
COMPOUND	EC50, nM
CC(=O)N[C@@H](CCCNC(=N)N)C(=O)N[C@H]1CCCC(=O)NCC[C@@H](C(N)=O)NC(=O)[C@H](Cc2c[nH]c3ccccc23)NC(=O)[C@H](CCCNC(=N)N)NC(=O)[C@@H](Cc2ccccc2)NC(=O)[C@H](CCN)NC1=O	0.06
CC(=O)N[C@@H](CCCNC(=N)N)C(=O)N[C@H]1CCNC(=O)CCC[C@@H](C(N)=O)NC(=O)[C@H](Cc2c[nH]c3ccccc23)NC(=O)[C@H](CCCNC(=N)N)NC(=O)[C@@H](Cc2ccccc2)NC(=O)[C@H](CCN)NC1=O	0.065

Consider the additional compound presented here.
Query string: Given the compound CC(=O)N[C@@H](CCCNC(=N)N)C(=O)N[C@H]1CCCCNC(=O)C[C@@H](C(N)=O)NC(=O)[C@H](Cc2ccc3ccccc3c2)NC(=O)[C@H](CCCNC(=N)N)NC(=O)[C@@H](Cc2ccccc2)NC(=O)[C@H](CC(N)=O)NC1=O [compound 162] (HELM PEPTIDE1{[ac].R.K.N.[dF].R.[O=C([C@H](Cc1ccc2ccccc2c1)N[*:1])[*:2]].D.[am]}$PEPTIDE1,PEPTIDE1,3:R3-8:R3$$$V2.0) , what is its reported EC50?
Result string: 0.85

---

Listing of entries alongside the reported Ki.
TARGET ENTITY: hMC4-R (Homo sapiens (Human), UniProt P32245)
ASSAY PROCEDURE: Competitive inhibition binding assay using [I125]-NDP-α-MSH, hMC4-R membranes
EXPERIMENTAL CONDITIONS: averaged; [I125]-NDP-α-MSH (values not marked *); read-out: MC4-R Ki
Peptide text beside a SMILES is read from it.
Note: unit nM is implicit; provide only the numeric part.

COMPOUND	REPORTED VALUE
CC(=O)N[C@@H](CCCNC(=N)N)C(=O)N[C@H]1CCCC(=O)NCC[C@@H](C(=O)O)NC(=O)[C@H](Cc2c[nH]c3ccccc23)NC(=O)[C@H](CCCNC(=N)N)NC(=O)[C@@H](Cc2ccccc2)NC(=O)[C@H](CCN)NC1=O	45

Now take the following compound into account.
Query string: Give its Ki value. Item: CC(=O)N[C@@H](CCCNC(=N)N)C(=O)N[C@H]1CCCCNC(=O)C[C@@H](C(N)=O)NC(=O)[C@H](Cc2ccc3ccccc3c2)NC(=O)[C@H](CCCNC(=N)N)NC(=O)[C@@H](Cc2ccccc2)NC(=O)[C@H](CC(N)=O)NC1=O [compound 162] (HELM PEPTIDE1{[ac].R.K.N.[dF].R.[O=C([C@H](Cc1ccc2ccccc2c1)N[*:1])[*:2]].D.[am]}$PEPTIDE1,PEPTIDE1,3:R3-8:R3$$$V2.0)
Result string: 5

---

TARGET ENTITY: hMC4-R (Homo sapiens (Human))
ASSAY PROCEDURE: Competitive inhibition binding assay using [I125]-NDP-α-MSH, hMC4-R membranes
EXPERIMENTAL CONDITIONS: averaged; [I125]-NDP-α-MSH (values not marked *); read-out: MC4-R Ki
Bridge positions count the residues as written; N and C are the ends. Square brackets hold non-standard residues; d marks the D form. Peptide text beside a SMILES is read from it. * marks the point of attachment. Bn = c1ccc(C*)cc1
Ki values by entry
Your answer is read as nM, so omit the unit and give the number.

MOLECULE	TARGET ENTITY	Ki [nM]
CC(=O)N[C@@H](CCCNC(=N)N)C(=O)N[C@H]1CC(=O)NCCCC[C@@H](C(N)=O)NC(=O)[C@H](Cc2c[nH]c3ccccc23)NC(=O)[C@H](CCCNC(=N)N)NC(=O)[C@@H](Cc2ccccc2)NC(=O)[C@H]([C@@H](C)OCc2ccccc2)NC1=O [compound 14] (Ac-RDT(Bn)[dF]RWK-NH2; lactam 2-7)	hMC4-R (Homo sapiens (Human))	1
CC(=O)N[C@@H](CCCNC(=N)N)C(=O)N[C@H]1CCCCNC(=O)C[C@@H](C(=O)O)NC(=O)[C@H](Cc2c[nH]c3ccccc23)NC(=O)[C@H](CCCNC(=N)N)NC(=O)[C@@H](Cc2ccccc2)NC(=O)[C@H](CCN)NC1=O [compound 131] (HELM PEPTIDE1{[ac].R.K.[Dab].[dF].R.W.D}$PEPTIDE1,PEPTIDE1,3:R3-8:R3$$$V2.0)	hMC4-R (Homo sapiens (Human))	35
CC(=O)N[C@@H](CCCNC(=N)N)C(=O)N[C@H]1CC(=O)NCCCC[C@@H](C(=O)O)NC(=O)[C@H](Cc2c[nH]c3ccccc23)NC(=O)[C@H](CCCNC(=N)N)NC(=O)[C@@H](Cc2ccccc2)NC(=O)[C@@H]2C[C@@H](Cc3ccccc3)CN2C1=O	hMC4-R (Homo sapiens (Human))	12
CC(=O)N[C@@H](CCCNC(=N)N)C(=O)N[C@H]1CC(=O)NCCCC[C@@H](C(N)=O)NC(=O)[C@H](Cc2c[nH]c3ccccc23)NC(=O)[C@H](CCCNC(=N)N)NC(=O)[C@@H](Cc2ccccc2)NC(=O)[C@H](CCC(N)=O)NC1=O	hMC4-R (Homo sapiens (Human))	115
CC(=O)N[C@H](CCCNC(=N)N)C(=O)N[C@H]1CC(=O)NCCCC[C@@H](C(N)=O)NC(=O)[C@H](Cc2c[nH]c3ccccc23)NC(=O)[C@H](CCCNC(=N)N)NC(=O)[C@@H](Cc2ccccc2)NC(=O)[C@H](CCC(N)=O)NC1=O	hMC4-R (Homo sapiens (Human))	45

Query string: Look up Ki: "N=C(N)NCCC[C@H](NC(=O)Cc1ccccc1)C(=O)N[C@H]1CC(=O)NCCCC[C@@H](C(N)=O)NC(=O)[C@H](Cc2c[nH]c3ccccc23)NC(=O)[C@H](CCCNC(=N)N)NC(=O)[C@@H](Cc2ccccc2)NC(=O)[C@H](CCN)NC1=O"
Result string: 2

Query string: Entry "CC(=O)N[C@@H](CCCNC(=N)N)C(=O)N[C@H]1CCCC(=O)NCC[C@@H](C(N)=O)NC(=O)[C@H](Cc2c[nH]c3ccccc23)NC(=O)[C@H](CCCNC(=N)N)NC(=O)[C@@H](Cc2ccccc2)NC(=O)[C@H](CCC(N)=O)NC1=O" has what Ki?
Result string: 20

Query string: For N=C(N)NCCC[C@@H]1NC(=O)[C@@H](Cc2ccccc2)NC(=O)[C@H](Cc2c[nH]cn2)NC(=O)[C@@H](NC(=O)[C@@H](N)CCCNC(=N)N)CCCNC(=O)CC[C@@H](C(N)=O)NC(=O)[C@H](Cc2c[nH]c3ccccc23)NC1=O [compound 99] (HELM PEPTIDE1{R.[Orn].H.[dF].R.W.E.[am]}$PEPTIDE1,PEPTIDE1,2:R3-7:R3$$$V2.0) , what is its reported Ki?
Result string: 6

Query string: Query: Ki; subject: "CC(=O)N[C@@H](CCCNC(=N)N)C(=O)N[C@H]1CC(=O)NCCCC[C@@H](C(=O)O)NC(=O)[C@H](Cc2c[nH]c3ccccc23)NC(=O)[C@H](CCCNC(=N)N)NC(=O)[C@@H](Cc2ccccc2)NC(=O)[C@@H]2C[C@@H](OCc3ccccc3)CN2C1=O"
Result string: 3

Query string: Using the record for CC(=O)N[C@@H](CCCNC(=N)N)C(=O)N[C@H]1CCCC(=O)NCC[C@@H](C(N)=O)NC(=O)[C@H](Cc2c[nH]c3ccccc23)NC(=O)[C@H](CCCNC(=N)N)NC(=O)[C@@H](Cc2ccccc2)NC(=O)[C@H](CC(N)=O)NC1=O [compound 160] (HELM PEPTIDE1{[ac].R.[O=C([C@H](CCCC(=O)[*:3])N[*:1])[*:2]].N.[dF].R.W.[Dab].[am]}$PEPTIDE1,PEPTIDE1,3:R3-8:R3$$$V2.0) , report its Ki.
Result string: 8

Query string: # lookup: Ki of "CC(=O)N[C@@H](CCCNC(=N)N)C(=O)N[C@H]1CC(=O)NCCCC[C@@H](C(N)=O)NC(=O)[C@H](Cc2c[nH]c3ccccc23)NC(=O)[C@H](CCCNC(=N)N)NC(=O)[C@@H](Cc2ccccc2)NC(=O)CN(C)C1=O"
Result string: 15

Query string: Quick check: Ki of CC(=O)N[C@@H](CCCNC(=N)N)C(=O)N[C@H]1CCCCNC(=O)C[C@@H](C(N)=O)NC(=O)[C@H](Cc2c[nH]c3ccccc23)NC(=O)[C@H](CCCNC(=N)N)NC(=O)[C@@H](Cc2ccccc2)NC(=O)[C@H](CC(N)=O)NC1=O [compound 155] (HELM PEPTIDE1{[ac].R.K.N.[dF].R.W.D.[am]}$PEPTIDE1,PEPTIDE1,3:R3-8:R3$$$V2.0) ?
Result string: 5

Query string: Looking for the measured Ki of CC(=O)N[C@@H](CCCNC(=N)N)C(=O)N[C@H]1CCCC(=O)NCC[C@@H](C(N)=O)NC(=O)[C@H](Cc2c[nH]c3ccccc23)NC(=O)[C@H](CCCNC(=N)N)NC(=O)[C@@H](Cc2ccccc2)NC(=O)[C@H](CCS(C)(=O)=O)NC1=O [compound 145] (HELM PEPTIDE1{[ac].R.[O=C([C@H](CCCC(=O)[*:3])N[*:1])[*:2]].[CS(=O)(=O)CC[C@H](N[*:1])C(=O)[*:2]].[dF].R.W.[Dab].[am]}$PEPTIDE1,PEPTIDE1,3:R3-8:R3$$$V2.0) , can you help?
Result string: 4
